// compounds with log10 of Ki on Adenosine receptor A2a (Homo sapiens, UniProt P29274), multi-source literature
MEASURE: log10 of Ki (log10 of the value in nM)

COMPOUND	MEASURE	OBSERVED
Cc1cc(-c2sc(NC(=O)N3CCOC[C@H]3C)nc2-c2cccc(C#N)c2)cc(C)n1	log10 of Ki	-0.20
Cc1cc(-c2c(-c3cccc(C#N)c3)nn3ccc(C(=O)N[C@H](C)C(C)(C)O)nc23)cc(C)n1	log10 of Ki	-0.30
Cc1cc(-c2sc(NC(=O)N3CCC(C)(C#N)CC3)nc2-c2cccc(C#N)c2)cc(C)n1	log10 of Ki	-0.92
Cc1cc(-c2sc(NC(=O)N3CCN(CC(C)(C)O)CC3)nc2-c2cccc(C#N)c2)cc(C)n1	log10 of Ki	1.09
Cc1cc(-c2sc(NC(=O)N3CCN(C(C)(C)CO)CC3)nc2-c2cccc(C#N)c2)cc(C)n1	log10 of Ki	0.63
Cc1cc(-c2sc(NC(=O)N3CC4(COC4)C3)nc2-c2cccc(C#N)c2)cc(C)n1	log10 of Ki	-0.59
Cc1cc(-c2c(-c3cccc(C#N)c3)nn3ccc(NC(C)CN(C)C)nc23)cc(Cl)n1 (centres unmarked)	log10 of Ki	1.20
Cc1cc(-c2c(-c3cccc(C#N)c3)nn3ccc(C(=O)NC4CCNCC4)nc23)cc(Cl)n1	log10 of Ki	1.34
O=C(Nc1cccnc1)NC1CCN(c2nc(NCC(c3ccccc3)c3ccccc3)c3ncn(C4CC(NC(=O)C5CCC5)C(O)C4O)c3n2)C1 (centres unmarked)	log10 of Ki	0.70
Cc1cc(-c2sc(NC(=O)N3CCS(=N)(=O)CC3)nc2-c2cccc(C#N)c2)cc(C)n1	log10 of Ki	-0.57
Cc1cc(-c2sc(NC(=O)N3CC4(COC4)C3)nc2-c2cccc(C#N)c2)cc([C@@H](C)O)n1 (single isomer, unassigned)	log10 of Ki	-0.74
CCn1cnc(CCNc2nc(NCC(c3ccccc3)c3ccccc3)c3ncn([C@@H]4C[C@H](n5cc(CO)cn5)[C@@H](O)[C@H]4O)c3n2)c1	log10 of Ki	1.00
Cc1cc(-c2c(-c3cccc(C#N)c3)nn3ccc(NC(=O)N4CCC(C)(C#N)CC4)nc23)cc(C)n1	log10 of Ki	0.92
Cc1cc(-c2sc(NC(=O)N3CC4CN(C)CC43)nc2-c2cccc(C#N)c2)cc(C)n1 (centres unmarked)	log10 of Ki	1.05
Cc1cc(-c2sc(NC(=O)N3CCC4(CCOC(=O)N4)CC3)nc2-c2cccc(C#N)c2)cc(C)n1	log10 of Ki	0.21
Cc1cc(-c2sc(NC(=O)N3CC4(COC4)C3)nc2-c2cccc(C#N)c2)cc(C(F)F)n1	log10 of Ki	-0.64
Cc1cc(-c2sc(NC(=O)N3CCC4(CC3)CNC(=O)C4)nc2-c2cccc(C#N)c2)cc(C)n1	log10 of Ki	-0.17
COCCn1c(=O)n([C@H]2C[C@@H]2C)c(=O)c2c(C)c(CN3CCNC3=O)sc21	log10 of Ki	2.68
Cc1cc(-c2sc(NC(=O)N3C[C@@H]4OCCN(C)[C@@H]4C3)nc2-c2cccc(C#N)c2)cc(C)n1 (racemic)	log10 of Ki	-0.04
N#Cc1cccc(-c2nn3ccc(NCCN4CCN(c5ccccc5)CC4)nc3c2C#N)c1	log10 of Ki	1.21
Cc1cc(-c2sc(NC(=O)N3CC4(CCOC4)C3)nc2-c2cccc(C#N)c2)cc(C(C)(C)O)n1	log10 of Ki	-0.70
Cc1cc(-c2c(-c3cccc(C#N)c3)nn3ccc(C(=O)N[C@H]4CC[C@@](C)(O)CC4)nc23)cc(C)n1	log10 of Ki	0.53
CCC(=O)N[C@H]1C[C@@H](n2cnc3c(NCC(c4ccccc4)c4ccccc4)nc(N4CC[C@@H](NC(=O)N[C@@H]5CCN(C(=O)c6ccc(C(=O)OC)cc6)C5)C4)nc32)[C@H](O)[C@@H]1O	log10 of Ki	0.48
Cc1cc(-c2sc(NC(=O)N3CC[C@@H](S(C)(=O)=O)C3)nc2-c2cccc(C#N)c2)cc(C)n1	log10 of Ki	-0.06
Cc1cc(-c2c(-c3cccc(C#N)c3)nn3ccc(C(=O)NCC4(C)NC(=O)NC4=O)nc23)c(F)c(C)n1 (centres unmarked)	log10 of Ki	0.70
Cc1cc(-c2sc(NC(=O)N3CC(=O)N[C@H](C)C3)nc2-c2cccc(C#N)c2)cc(C)n1	log10 of Ki	1.08
CC(C)(C)OC(=O)N1CCO[C@@H](CNc2ccn3nc(-c4ccco4)c(C#N)c3n2)C1	log10 of Ki	1.12
